Each recorded value in this set is attributed to ChEMBL document CHEMBL3739412.

- assayedSystem: 17-beta-hydroxysteroid dehydrogenase type 2 (Homo sapiens)
- experimentNotes: Inhibition of 17beta-HSD2 in human placental microsomal fraction using E2/NAD+ as substrate/cofactor at 1 uM after 20 mins by HPLC analysis
- assayConditions: Placenta
Active and inactive are the calls of the source. The rule behind the calls is not given here.
parameter: inhibition

{"structureSmilesString": "Cc1cccc(N(C)C(=O)c2ccc(Oc3ccccc3C)cc2)c1", "inhibition": "55%"}
{"structureSmilesString": "COc1cccc(C(=O)N2CCN(c3ccccc3)CC2)c1", "inhibition": "14%"}
{"structureSmilesString": "COc1cccc(N2CCN(S(=O)(=O)c3cccc(OC)c3)CC2)c1", "inhibition": "inactive"}
{"structureSmilesString": "O=C(c1cccc(O)c1)N1CCN(c2ccccc2)CC1", "inhibition": "27%"}
{"structureSmilesString": "COc1cccc(N(C)C(=O)c2ccc(-c3ccc(C)c(C)c3)cc2)c1", "inhibition": "75%"}

Proceed to the following item.
Form field inhibition, entry COc1cccc(S(=O)(=O)N2CCN(c3cccc(C)c3)CC2)c1 : 16%
